Test: optical density shifts of acrAB sulA E. coli – strain DRC41, OD650, 48 h, E. coli filamentation inducer project, primary screen (AID 1152);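 also: E. coli MC1000 strain DRC41 lacking acrAB efflux pump and sulA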
Conditions: higher = more signal, called active from +8 up or from −8 down
Measure Name: z-score
Give the value as a plain number.

# count of solved cases: 2
[[record]]
compound = "O=C(O)[C@@H]1C[C@@H]2C(=O)N3CCC[C@H]3C(=O)N2[C@@H]1c1ccc(O)cc1"
measure_name = "z-score"
reported_result = 2.3

[[record]]
compound = "CCCNC(=O)[C@@H]1c2ccccc2C(=O)N(Cc2ccc(OC(F)(F)F)cc2)[C@H]1c1ccc(CO)cc1"
measure_name = "z-score"
reported_result = 0.52


For the compound shown here, CC(C)[Si](C#C[Si](C(C)C)(C(C)C)C(C)C)(O[C@H](c1ccccc1)c1cn(Cc2ccccc2)nn1)C(C)C , give the reported z-score.
1.25

Query: z-score; subject: [N-]=[N+]=Nc1ccccc1C[C@@]1(C(=O)N2CCOCC2)N=C(c2ccc(OCCCO)cc2)O[C@@H]1c1ccccc1
0.345

Return reported z-score; argument: CCCC=C(CCC)[C@@H](NC(=O)C(C)(C)C)c1ccc(C(=O)OC)cc1
-1.31

State the recorded z-score for this entry: C=C(/C(=C/C[C@H](OC(=O)c1ccncc1)c1ccc(CO)o1)c1cnc2ccccc2c1)C(C)C
-0.833

Any idea what its z-score is? The compound is COCCCNC(=O)[C@@H]1c2ccccc2C(=O)N(C(C)C)[C@H]1c1ccc(CO)cc1
-0.476

Recorded z-score of Cc1ccccc1C(O)C1C=CC2C(=O)NC(=O)C2N1Nc1ccccn1 (stereo not drawn) , please.
-0.908

====

Test: optical density shifts of acrAB sulA E. coli – strain DRC41, OD650, 48 h, E. coli filamentation inducer project, primary screen (AID 1152);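 also: E. coli MC1000 strain DRC41 lacking acrAB efflux pump and sulA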
Conditions: higher = more signal, called active from +8 up or from −8 down
Measure Name: z-score
Hey, just send me the number, nothing else.

[[record]]
chemical_structure = "O=C(NCCN1CCOCC1)[C@@H]1c2ccccc2C(=O)N(Cc2ccccc2Cl)[C@H]1c1ccc(CO)cc1"
reported_result = 0.446


Record request: z-score value, item COC(=O)[C@@]1(Cc2ccc(OC)cc2)[C@H]2c3cc(C(=O)N(C)C)n(Cc4ccc(C)o4)c3C[C@H]2CN1C(=O)c1ccccc1
-0.155

Need z-score, item CCOC(=O)C1=C[C@@H](C(C)(C)C)N(S(=O)(=O)c2ccc(C)cc2)[C@H]1c1cccc2ccccc12
-1.11

Which z-score is reported for this compound? CCOC(=O)C1=CC[C@@H](c2ccccc2)N(S(=O)(=O)c2ccc(C)cc2)[C@H]1c1ccccc1
-1.11

====

z-score values for the compounds below.
Assay: change in splice reporter luminescence, either direction, cell-based, HEK293, spliceosome inhibition project, primary screen (AID 1101);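 also: HEK293 cells carrying a splicing-competent luciferase reporter gene; test concentration not given here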
Conditions: HEK293 splicing luciferase reporter, 24 h, higher = more signal, called active from +8 up or from −8 down
The answer should be written as a number, with no unit following it.

The cases that follow already have their z-score on record.
[[record]]
compound = "CCOc1cc(C(O)C2C=CC3C(=O)NC(=O)C3N2Nc2ccc(Cl)cc2Cl)ccc1O (stereo not drawn)"
measure_name = "z-score"
reported_result = 1.22

[[record]]
compound = "COC(=O)C1=CC(CCCO)=CC(c2cccs2)N(C)C=C1C(=O)OC (stereo not drawn)"
measure_name = "z-score"
reported_result = 0.844

[[record]]
compound = "CCOC(=O)[C@@H]1CCCCN1C(=O)C(=O)OC"
measure_name = "z-score"
reported_result = 1.11

[[record]]
compound = "O=C1NC(=O)C2C1C=CC(C(O)c1ccco1)N2Nc1ccc(Cl)cc1Cl (stereo not drawn)"
measure_name = "z-score"
reported_result = 0.545

[[record]]
compound = "CCOC(=O)C[C@H]1[C@H](OC(=O)c2ccc(C(=O)c3ccccc3)cc2)[C@@H](NC(=O)c2ccc3ccccc3n2)c2cc(OCCCO)ccc2N1C(=O)Cc1ccc(OC)cc1"
measure_name = "z-score"
reported_result = 0.187


Return reported z-score; argument: COC(=O)[C@@]1(Cc2ccc(OC)cc2)[C@H]2c3cc(C(=O)N(C)C)n(Cc4ccc(OC(F)(F)F)cc4)c3C[C@H]2CN1C(=O)c1ccccc1
1.32

Requested read-out: z-score. Entry: CO[C@H]1O[C@H](CO)[C@@H](OC(=O)CCc2ccccc2)[C@@H]2OC(=O)[C@@H](Cc3ccccc3)C/C=C/C[C@H](Cc3ccccc3)C(=O)O[C@@H]12
-1.57

Report z-score for CCCNC(=O)[C@@H]1c2ccccc2C(=O)N(Cc2ccc(OC(F)(F)F)cc2)[C@H]1c1ccc(CO)cc1 please.
0.0883
